experiment: NCI Yeast Anticancer Drug Screen. Data for the sgs1 mgt1 strain (AID 161); details: S. cerevisiae sgs1 mgt1 strain, at 5.0 µM (retest, dose inferred, filed as 0.5)
The panel holds about 79,000 compounds, 15% with a hit somewhere; the sample as a whole holds those more often. The source made the active and inactive calls. Cut-off read from the data, not from the text of the source: active = growth inhibition above about 70%; inactive = the rest.
Result category, one only: active, inactive

Task: I'd appreciate the recorded outcome for N#C/C(=C\c1cccnc1)c1csc2ccccc12 from this test.
Result: inactive

Task: I'd appreciate the recorded outcome for COc1ccc(C2=C(Cl)C(=O)N(c3ccccc3C)C(=O)C2(Cl)Cl)cc1 from this test.
Result: active

Task: I'd appreciate the recorded outcome for O=S1(=O)C(C(O)(c2ccccc2)c2ccccc2)CCCN1c1ccccc1 (configuration not stated) from this test.
Result: inactive

Task: I'd appreciate the recorded outcome for CSC(SC)C(SC)SC from this test.
Result: inactive

Task: I'd appreciate the recorded outcome for CCOc1ccc2nc(C)cc(C)c2c1 from this test.
Result: inactive

Task: I'd appreciate the recorded outcome for COC(=O)c1ccc(CSc2ccc(OC)cc2)cc1 from this test.
Result: inactive

Task: I'd appreciate the recorded outcome for Nc1ncnc2c1c(-c1ccc(Cl)cc1)cn2-c1ccccc1 from this test.
Result: inactive
